# System: human liver cancer cells (HepG2)
# experiment-summary: MTT antiproliferative assay, HepG2
# Type: cell-based
# condition-context: 10 μM, read-out: Inhibition rate, HepG2
measured-quantity: inhibition at 10 µM (%)

1. COc1cc(-c2nnc(SCC(=O)Nc3cc(-c4c[nH]c5ccccc45)n[nH]3)s2)cc(OC)c1OC [Compound 10b]; 92.1
2. Nn1c(SCC(=O)Nc2cc(-c3c[nH]c4ccccc34)n[nH]2)nnc1-c1ccccc1 [Compound 11k]; 11.1
3. Nn1c(SCC(=O)Nc2cc(-c3c[nH]c4ccccc34)n[nH]2)nnc1-c1c[nH]c2ccccc12 [Compound 11n]; 80.5
4. Nn1c(SCC(=O)Nc2cc(-c3c[nH]c4ccccc34)n[nH]2)nnc1-c1ccc(Br)cc1 [Compound 11m]; 60.9
5. O=C(CSc1nnc(Cc2ccc(Cl)cc2)s1)Nc1cc(-c2c[nH]c3ccccc23)n[nH]1 [Compound 10d]; 93.7
6. Nn1c(SCC(=O)Nc2cc(-c3c[nH]c4ccccc34)n[nH]2)nnc1-c1cccnc1 [Compound 11h]; 93.6
7. Nn1c(SCC(=O)Nc2cc(-c3c[nH]c4ccccc34)n[nH]2)nnc1-c1ccccc1Cl [Compound 11j]; 14.4
8. O=C(CSc1nnc(-c2cccnc2)s1)Nc1cc(-c2c[nH]c3ccccc23)n[nH]1 [Compound 10h]; 63.2
9. O=c1[nH]cc(F)c(=O)[nH]1 [5-Fluorouracil, reference compound]; 26.4
10. Nn1c(SCC(=O)Nc2cc(-c3c[nH]c4ccccc34)n[nH]2)nnc1-c1ccc(F)cc1 [Compound 11p]; 22.8
11. COc1cc(-c2nnc(SCC(=O)Nc3cc(-c4c[nH]c5ccccc45)n[nH]3)n2N)cc(OC)c1OC [Compound 11b]; 72.7
12. Nc1ccc(-c2nnc(SCC(=O)Nc3cc(-c4c[nH]c5ccccc45)n[nH]3)n2N)cc1 [Compound 11l]; 93.5
13. O=C(CSc1nnc(-c2ccccn2)s1)Nc1cc(-c2c[nH]c3ccccc23)n[nH]1 [Compound 10i]; 51.9
14. Nn1c(SCC(=O)Nc2cc(-c3c[nH]c4ccccc34)n[nH]2)nnc1-c1ccccc1Br [Compound 11c]; 10.4
15. Nn1c(SCC(=O)Nc2cc(-c3c[nH]c4ccccc34)n[nH]2)nnc1-c1ccccc1F [Compound 11g]; 74.9
16. COc1ccc(-c2nnc(SCC(=O)Nc3cc(-c4c[nH]c5ccccc45)n[nH]3)s2)cc1 [Compound 10e]; 95.5
17. Nn1c(SCC(=O)Nc2cc(-c3c[nH]c4ccccc34)n[nH]2)nnc1-c1ccc(Cl)cc1 [Compound 11f]; 46.9
18. Nn1c(SCC(=O)Nc2cc(-c3c[nH]c4ccccc34)n[nH]2)nnc1-c1ccc[nH]1 [Compound 11r]; 96.5
19. Nn1c(SCC(=O)Nc2cc(-c3c[nH]c4ccccc34)n[nH]2)nnc1-c1ccccc1O [Compound 11q]; 84.7
20. O=C(CSc1nnc(-c2ccccc2Br)s1)Nc1cc(-c2c[nH]c3ccccc23)n[nH]1 [Compound 10c]; 11.9
21. Nn1c(Cc2ccc(Cl)cc2)nnc1SCC(=O)Nc1cc(-c2c[nH]c3ccccc23)n[nH]1 [Compound 11d]; 16.3
22. O=C(CSc1nnc(-c2ccc(Cl)cc2)s1)Nc1cc(-c2c[nH]c3ccccc23)n[nH]1 [Compound 10f]; 90.3
23. Nn1c(SCC(=O)Nc2cc(-c3c[nH]c4ccccc34)n[nH]2)nnc1-c1ccccn1 [Compound 11i]; 95.3
24. COc1ccc(-c2nnc(SCC(=O)Nc3cc(-c4c[nH]c5ccccc45)n[nH]3)n2N)cc1 [Compound 11e]; 63.5
25. O=C(CSc1nnc(-c2cc(Cl)cc(Cl)c2)s1)Nc1cc(-c2c[nH]c3ccccc23)n[nH]1 [Compound 10a]; 76
26. O=C(CSc1nnc(-c2ccccc2F)s1)Nc1cc(-c2c[nH]c3ccccc23)n[nH]1 [Compound 10g]; 56.9
27. Nn1c(SCC(=O)Nc2cc(-c3c[nH]c4ccccc34)n[nH]2)nnc1-c1cc(Cl)cc(Cl)c1 [Compound 11a]; 19.3

###

Overview of reported CC50 across a group of molecules:
# experiment-summary: MTT cytotoxicity, normal cell line HEK293
# Format: cell-based, human
# condition-context: human, HEK293 cells; Table 2, unit inferred; repeats Table 1
measured-quantity: CC50 (nM)

1) COc1cc(-c2nnc(SCC(=O)Nc3cc(-c4c[nH]c5ccccc45)n[nH]3)s2)cc(OC)c1OC [Compound 10b]; 1120
2) Nn1c(SCC(=O)Nc2cc(-c3c[nH]c4ccccc34)n[nH]2)nnc1-c1cccnc1 [Compound 11h]; 1790

###

# System: human prostate cancer cells (PC-3)
# experiment-summary: MTT antiproliferative assay, PC-3
# Format: cell-based
# condition-context: MTT assay, 48 h; read-out: In vitro cytotoxicity IC50, PC-3
# Procedure: A549, PC-3, HepG2 and K562 cells were purchased from the Kunming cell bank of the Chinese academy of sciences. All cell lines were cultured in DMEM or RPMI 1640 complete medium. Logarithmic growth cells were cultured in 96-well plates at a concentration of 10^4 cells per well and pre-cultured for 24 h before adding test compounds. […]
pIC50: −log10 of the molar value.
measured-quantity: pIC50

1) COc1cc(-c2nnc(SCC(=O)Nc3cc(-c4c[nH]c5ccccc45)n[nH]3)s2)cc(OC)c1OC [Compound 10b]; 6.07

###

# System: normal cell line (HEK293)
# experiment-summary: MTT cytotoxicity, normal cell line HEK293
# Format: cell-based, human
# condition-context: Homo sapiens, HEK293; 10 μM; read-out: Inhibition rate, HEK293
Overview of reported inhibition at 10 µM across a group of compounds:
measured-quantity: inhibition at 10 µM (%)

1) O=C(CSc1nnc(-c2cc(Cl)cc(Cl)c2)s1)Nc1cc(-c2c[nH]c3ccccc23)n[nH]1 [Compound 10a]; 87.6
2) COc1ccc(-c2nnc(SCC(=O)Nc3cc(-c4c[nH]c5ccccc45)n[nH]3)n2N)cc1 [Compound 11e]; 67.3
3) COc1ccc(-c2nnc(SCC(=O)Nc3cc(-c4c[nH]c5ccccc45)n[nH]3)s2)cc1 [Compound 10e]; 85.5

###

# System: normal cell line (HEK293)
# experiment-summary: MTT cytotoxicity, normal cell line HEK293
# Assay type: cell-based, human
# condition-context: Homo sapiens, HEK293; 10 μM; read-out: Inhibition rate, HEK293
measured-quantity: inhibition at 10 µM (%)

1. O=C(CSc1nnc(-c2ccccc2F)s1)Nc1cc(-c2c[nH]c3ccccc23)n[nH]1 [Compound 10g]; 68.1
2. Nn1c(SCC(=O)Nc2cc(-c3c[nH]c4ccccc34)n[nH]2)nnc1-c1ccccc1F [Compound 11g]; 65.4
3. O=c1[nH]cc(F)c(=O)[nH]1 [5-Fluorouracil, reference compound]; 72.1
4. Nn1c(SCC(=O)Nc2cc(-c3c[nH]c4ccccc34)n[nH]2)nnc1-c1c[nH]c2ccccc12 [Compound 11n]; 44.7
5. Nn1c(SCC(=O)Nc2cc(-c3c[nH]c4ccccc34)n[nH]2)nnc1-c1ccccc1Br [Compound 11c]; 1.73
6. Nc1ccc(-c2nnc(SCC(=O)Nc3cc(-c4c[nH]c5ccccc45)n[nH]3)n2N)cc1 [Compound 11l]; 79.6
7. O=C(CSc1nnc(-c2ccccc2Br)s1)Nc1cc(-c2c[nH]c3ccccc23)n[nH]1 [Compound 10c]; 33
8. O=C(CSc1nnc(-c2cccnc2)s1)Nc1cc(-c2c[nH]c3ccccc23)n[nH]1 [Compound 10h]; 18.7
9. Nn1c(SCC(=O)Nc2cc(-c3c[nH]c4ccccc34)n[nH]2)nnc1-c1ccccc1O [Compound 11q]; 99.3
10. Nn1c(SCC(=O)Nc2cc(-c3c[nH]c4ccccc34)n[nH]2)nnc1-c1ccccc1 [Compound 11k]; 0.497
11. Nn1c(SCC(=O)Nc2cc(-c3c[nH]c4ccccc34)n[nH]2)nnc1-c1ccccn1 [Compound 11i]; 67.1
12. Nn1c(SCC(=O)Nc2cc(-c3c[nH]c4ccccc34)n[nH]2)nnc1-c1cccnc1 [Compound 11h]; 77.8
13. O=C(CSc1nnc(-c2ccccn2)s1)Nc1cc(-c2c[nH]c3ccccc23)n[nH]1 [Compound 10i]; 46.5
14. Nn1c(Cc2ccc(Cl)cc2)nnc1SCC(=O)Nc1cc(-c2c[nH]c3ccccc23)n[nH]1 [Compound 11d]; 63.4
15. Nn1c(SCC(=O)Nc2cc(-c3c[nH]c4ccccc34)n[nH]2)nnc1-c1ccc(Br)cc1 [Compound 11m]; 54.2
16. COc1cc(-c2nnc(SCC(=O)Nc3cc(-c4c[nH]c5ccccc45)n[nH]3)n2N)cc(OC)c1OC [Compound 11b]; 72.1

###

# Test system: human non-small cell lung cancer cells (A549)
# experiment-summary: MTT antiproliferative assay, A549
# Assay type: cell-based
# condition-context: A549, 10 μM, read-out: Inhibition rate, A549
measured-quantity: inhibition at 10 µM (%)

1. O=C(CSc1nnc(-c2ccccc2F)s1)Nc1cc(-c2c[nH]c3ccccc23)n[nH]1 [Compound 10g]; 55.2
2. O=c1[nH]cc(F)c(=O)[nH]1 [5-Fluorouracil, reference compound]; 54.3
3. O=C(CSc1nnc(Cc2ccc(Cl)cc2)s1)Nc1cc(-c2c[nH]c3ccccc23)n[nH]1 [Compound 10d]; 90.7
